Cited source for all entries: ChEMBL document CHEMBL1177657

inhibition values by entry
assayed system: Interleukin-5 (Mus musculus) (UniProt P04401)
Sequence (P04401 whole entry): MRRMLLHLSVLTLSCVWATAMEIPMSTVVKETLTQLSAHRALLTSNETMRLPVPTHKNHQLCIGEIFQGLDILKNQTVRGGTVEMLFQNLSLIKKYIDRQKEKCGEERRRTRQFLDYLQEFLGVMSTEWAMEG
assay remarks: Inhibition of interleukin-5 in mouse Y16 cells at 30 uM
Assay type: cell-based
parameter measured: inhibition (%)

> print(dat)
                                   molecule  parameter.measured  reported.measurement
1       O=c1c(CNCCO)coc2cccc(OCC3CCCCC3)c12          inhibition                    13
2  O=c1c(CNCc2ccc(O)cc2)coc2cccc(OCC3CCCCC3)c12          inhibition                    50
3  O=c1c(CNC(CO)CC2CCCCC2)coc2cccc(OCC3CCCCC3)c12 (stereo not given)          inhibition                    93
4  CCCC(CO)NCc1coc2cccc(OCC3CCCCC3)c2c1=O (stereo not given)          inhibition                    13
5  O=c1c(CNC(CCO)c2ccccc2)coc2cccc(OCC3CCCCC3)c12 (stereo not given)          inhibition                    30
